System: L. major promastigotes
experimental-details: Growth inhibition assay of promastigotes (pNPP)
Format: cell-based, L. major MHOM/IL/81/Friedlin
measurement-conditions: Leishmania major, 48 h, read-out: Promastigotes (IC50 ± SD) L. major
measurement-type: pIC50
The read-out pIC50 is expressed as -log10 of concentration in moles per litre.

Q: Give reported pIC50 value for O=C(Cn1cc([N+](=O)[O-])nc1[N+](=O)[O-])N1CCN(c2ccccc2)CC1 [Compound 7]
Ans: 5.54

* * *

System: L. major promastigotes
experimental-details: Growth inhibition assay of promastigotes (pNPP)
Format: cell-based, L. major MHOM/IL/81/Friedlin
measurement-conditions: Leishmania major; 48 h at 26°C, pNPP readout; read-out: Promastigotes (IC50 ± SD) L. major
Please respond with Condition met when measured IC50 is strictly beneath 10 µM, and with Condition not met in all other cases.

C[C@@H]1[C@H](O)[C@@H](C)/C=C/C=C/C=C/C=C/C=C/C=C/C=C/[C@H](O[C@@H]2O[C@H](C)[C@@H](O)[C@H](N)[C@@H]2O)C[C@@H]2O[C@](O)(C[C@@H](O)C[C@@H](O)[C@H](O)CC[C@@H](O)C[C@@H](O)CC(=O)O[C@H]1C)C[C@H](O)[C@H]2C(=O)O [AmB, amphotericin B deoxycholate, reference compound] = Condition met
OC(COc1cccc2ccccc12)CN1CCCC1 (stereo not shown) = Condition not met
CCN1CCN(C(=S)c2ccc(OC)cc2)CC1 = Condition not met
COc1ccc2c(c1)sc(=N)n2C = Condition not met
Nc1cnn(Cc2ccccc2F)c1 = Condition not met

Q: Is the reported IC50 for `CN1CCN(Cc2ccccc2Sc2ccccc2)CC1` strictly below 10 µM?
Ans: Condition met
